tested on: Klebsiella pneumoniae; experiment: Antibacterial activity against Klebsiella pneumoniae by broth dilution method; type: functional
experimental.readout: MIC (µg/mL)

Cc1ccc(-n2c([C@H]3O[C@@H]4OC(C)(C)O[C@@H]4[C@H]4OC(C)(C)O[C@H]43)nc(-c3ccccc3)c2-c2ccccc2)cc1    75
CN[C@@H]1[C@H](O[C@H]2[C@H](O[C@H]3[C@H](O)[C@@H](O)[C@H](N=C(N)N)[C@@H](O)[C@@H]3N=C(N)N)O[C@@H](C)[C@]2(O)C=O)O[C@@H](CO)[C@H](O)[C@H]1O (stereo in doubt)    3.12
CC1(C)OC(c2nc(-c3ccccc3)c(-c3ccccc3)n2-c2ccc(F)cc2)[C@H]([C@@H](O)[C@H]2COC(C)(C)O2)O1 (stereo partly drawn)    75

----------
test system: Escherichia coli; assay: Antibacterial activity against Escherichia coli by broth dilution method; format: functional
experimental.readout: MIC (µg/mL)

OC[C@@H](O)[C@@H](O)[C@@H](O)[C@H](O)c1nc(-c2ccccc2)c(-c2ccccc2)n1Cc1ccccc1    75
CN[C@@H]1[C@H](O[C@H]2[C@H](O[C@H]3[C@H](O)[C@@H](O)[C@H](N=C(N)N)[C@@H](O)[C@@H]3N=C(N)N)O[C@@H](C)[C@]2(O)C=O)O[C@@H](CO)[C@H](O)[C@H]1O (stereo in doubt)    2.35
CC1(C)OC(c2nc(-c3ccccc3)c(-c3ccccc3)n2Cc2ccccc2)[C@H]([C@@H](O)[C@H]2COC(C)(C)O2)O1 (some centres undefined)    75
CC1(C)OC[C@H](c2nc(-c3ccccc3)c(-c3ccccc3)n2-c2ccc(F)cc2)O1    37.5
